target: novel cGMP-specific PDE Peak B (Section IIB) from SW480 cells (Homo sapiens, UniProt O00408)
Sequence (O00408 whole entry): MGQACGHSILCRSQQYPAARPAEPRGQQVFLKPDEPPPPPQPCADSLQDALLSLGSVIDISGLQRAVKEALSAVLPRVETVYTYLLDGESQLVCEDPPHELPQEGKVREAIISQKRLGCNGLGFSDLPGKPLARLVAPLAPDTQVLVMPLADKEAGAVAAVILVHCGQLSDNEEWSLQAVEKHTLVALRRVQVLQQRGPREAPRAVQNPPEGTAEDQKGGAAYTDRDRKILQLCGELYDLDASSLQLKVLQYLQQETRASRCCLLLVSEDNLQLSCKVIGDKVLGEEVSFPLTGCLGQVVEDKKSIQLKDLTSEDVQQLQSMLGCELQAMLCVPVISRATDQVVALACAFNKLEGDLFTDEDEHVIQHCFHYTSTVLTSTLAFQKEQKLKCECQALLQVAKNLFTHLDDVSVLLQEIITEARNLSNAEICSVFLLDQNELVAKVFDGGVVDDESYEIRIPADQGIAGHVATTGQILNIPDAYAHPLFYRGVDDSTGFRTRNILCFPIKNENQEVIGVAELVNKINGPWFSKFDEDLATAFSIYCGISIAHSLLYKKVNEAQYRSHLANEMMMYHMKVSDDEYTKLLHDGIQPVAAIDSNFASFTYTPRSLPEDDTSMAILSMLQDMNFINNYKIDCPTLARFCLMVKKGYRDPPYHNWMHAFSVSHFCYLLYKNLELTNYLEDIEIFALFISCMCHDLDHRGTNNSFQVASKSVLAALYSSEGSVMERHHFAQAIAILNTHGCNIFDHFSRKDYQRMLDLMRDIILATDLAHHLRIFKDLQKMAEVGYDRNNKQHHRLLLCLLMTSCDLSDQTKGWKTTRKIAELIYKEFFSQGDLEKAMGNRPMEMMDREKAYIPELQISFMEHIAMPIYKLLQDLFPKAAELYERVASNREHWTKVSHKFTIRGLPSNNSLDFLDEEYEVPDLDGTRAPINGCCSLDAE
pIC50: −log10 of the molar value.
pIC50: recorded values

// below: answered compounds
COMPOUND: CC1(C)C(=O)Nc2ccc(C3=NNC(=O)CC3)cc21
pIC50: < 4.00

COMPOUND: COc1cc(/C=C2/C(C)=C(CC(=O)NCc3ccccc3)c3cc(F)ccc32)cc(OC)c1OC
pIC50: 6.43

COMPOUND: COc1ccc(C2CNC(=O)C2)cc1OC1CCCC1 (stereo not shown)
pIC50: < 4.00

Could you now look at the following compound, please?
// field: pIC50; key: `CCOC(=O)C1=C[C@]2(CC)CCCN3CCc4c(n1c1ccccc41)[C@@H]32` ; value = < 4.00
